Experiment: self-splicing fitness, log relative to wild type (ln ratio); higher = more splicing; Tetrahymena group I intron in knt gene, E. coli kanamycin selection, DiMSum; sequences stand for … in CUCUCU…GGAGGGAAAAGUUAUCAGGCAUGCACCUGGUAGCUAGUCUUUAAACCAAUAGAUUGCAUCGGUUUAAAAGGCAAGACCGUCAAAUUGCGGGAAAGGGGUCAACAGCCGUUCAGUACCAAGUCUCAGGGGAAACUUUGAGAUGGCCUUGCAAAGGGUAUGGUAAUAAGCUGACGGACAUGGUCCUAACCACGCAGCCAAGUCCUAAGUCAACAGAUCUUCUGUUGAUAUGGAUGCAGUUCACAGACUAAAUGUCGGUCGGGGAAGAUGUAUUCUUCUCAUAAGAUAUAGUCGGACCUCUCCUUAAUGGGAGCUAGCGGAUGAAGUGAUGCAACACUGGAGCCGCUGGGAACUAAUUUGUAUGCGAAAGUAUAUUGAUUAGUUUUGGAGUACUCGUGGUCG;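 further: selection with 25 µg/mL kanamycin versus none on LB agar overnight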
Settings: 30 °C
Range-based classes on measured self-splicing fitness (ln): lower segment: < -3; middle segment: ≥ -3 and < -2; upper segment: ≥ -2

{"Entry sequence": "UGGAAGCAAUAUUACGGUCA", "Assigned category": "upper segment"}
{"Entry sequence": "ACGCAGCAAUAUUACGCGAA", "Assigned category": "middle segment"}
{"Entry sequence": "AGCAAGCAAUAUUACGAUCG", "Assigned category": "upper segment"}
{"Entry sequence": "CAACAGCAAUAUUACGGAAC", "Assigned category": "lower segment"}
{"Entry sequence": "AGCAAGCAAUAUUACGAAUA", "Assigned category": "middle segment"}
{"Entry sequence": "UUGCAGCAAUAUUACGCGUA", "Assigned category": "upper segment"}
{"Entry sequence": "CAUUAGCAAUAUUACGGACU", "Assigned category": "middle segment"}
{"Entry sequence": "AUCAAGCAAUAUUACGCUCG", "Assigned category": "upper segment"}
{"Entry sequence": "AAACAGCAAUAUUACGCCGG", "Assigned category": "middle segment"}
{"Entry sequence": "UGGUAGCAAUAUUACGAUUG", "Assigned category": "upper segment"}
{"Entry sequence": "AAUCAGCAAUAUUACGCUUG", "Assigned category": "upper segment"}
{"Entry sequence": "UUACAGCAAUAUUACGAUGC", "Assigned category": "lower segment"}
{"Entry sequence": "CCCCAGCAAUAUUACGCUAG", "Assigned category": "lower segment"}
{"Entry sequence": "GACCAGCAAUAUUACGCUGU", "Assigned category": "lower segment"}
{"Entry sequence": "CGAAAGCAAUAUUACGCAAC", "Assigned category": "middle segment"}
{"Entry sequence": "CGCGAGCAAUAUUACGCCAU", "Assigned category": "lower segment"}
{"Entry sequence": "UUCAAGCAAUAUUACGGAGA", "Assigned category": "upper segment"}
{"Entry sequence": "AGAAAGCAAUAUUACGCUGU", "Assigned category": "middle segment"}
{"Entry sequence": "AUCCAGCAAUAUUACGCCGG", "Assigned category": "lower segment"}
{"Entry sequence": "CGAUAGCAAUAUUACGAAUC", "Assigned category": "lower segment"}
{"Entry sequence": "CAUCAGCAAUAUUACGUUGG", "Assigned category": "upper segment"}
{"Entry sequence": "UCGGAGCAAUAUUACGGUAG", "Assigned category": "lower segment"}
{"Entry sequence": "GUGAAGCAAUAUUACGCAUA", "Assigned category": "upper segment"}
{"Entry sequence": "GGACAGCAAUAUUACGUGUC", "Assigned category": "lower segment"}
{"Entry sequence": "GAUAAGCAAUAUUACGAGAU", "Assigned category": "lower segment"}
{"Entry sequence": "UCUGAGCAAUAUUACGCGUU", "Assigned category": "lower segment"}
{"Entry sequence": "CUAAAGCAAUAUUACGCUAC", "Assigned category": "lower segment"}
{"Entry sequence": "GUGAAGCAAUAUUACGCACG", "Assigned category": "upper segment"}
{"Entry sequence": "AACGAGCAAUAUUACGGGAC", "Assigned category": "lower segment"}
{"Entry sequence": "GUGGAGCAAUAUUACGGUGC", "Assigned category": "middle segment"}
{"Entry sequence": "CUAGAGCAAUAUUACGUGGG", "Assigned category": "upper segment"}
{"Entry sequence": "UUAAAGCAAUAUUACGGGUC", "Assigned category": "lower segment"}
{"Entry sequence": "UGAUAGCAAUAUUACGGGUA", "Assigned category": "upper segment"}
{"Entry sequence": "GGAUAGCAAUAUUACGAGCU", "Assigned category": "upper segment"}
{"Entry sequence": "UUCCAGCAAUAUUACGGAUA", "Assigned category": "upper segment"}
{"Entry sequence": "GAAUAGCAAUAUUACGAUGC", "Assigned category": "upper segment"}
{"Entry sequence": "GGUGAGCAAUAUUACGUACG", "Assigned category": "upper segment"}
{"Entry sequence": "ACGAAGCAAUAUUACGACGU", "Assigned category": "middle segment"}
{"Entry sequence": "UAAGAGCAAUAUUACGUGAG", "Assigned category": "upper segment"}
{"Entry sequence": "CGCCAGCAAUAUUACGUACU", "Assigned category": "middle segment"}
{"Entry sequence": "AUAAAGCAAUAUUACGCCGG", "Assigned category": "upper segment"}
{"Entry sequence": "UAGGAGCAAUAUUACGCGAU", "Assigned category": "lower segment"}
{"Entry sequence": "GACAAGCAAUAUUACGCGGC", "Assigned category": "middle segment"}
{"Entry sequence": "GUCAAGCAAUAUUACGUAGC", "Assigned category": "upper segment"}
{"Entry sequence": "AUGUAGCAAUAUUACGAGGG", "Assigned category": "lower segment"}
{"Entry sequence": "GCGCAGCAAUAUUACGAACG", "Assigned category": "upper segment"}
{"Entry sequence": "ACCCAGCAAUAUUACGGUCG", "Assigned category": "lower segment"}
{"Entry sequence": "CCCAAGCAAUAUUACGAUUC", "Assigned category": "lower segment"}
{"Entry sequence": "GACGAGCAAUAUUACGCCUU", "Assigned category": "lower segment"}
{"Entry sequence": "UUCCAGCAAUAUUACGCGUA", "Assigned category": "upper segment"}
{"Entry sequence": "CAGCAGCAAUAUUACGCGCC", "Assigned category": "upper segment"}
{"Entry sequence": "UCUAAGCAAUAUUACGAGGA", "Assigned category": "lower segment"}
{"Entry sequence": "AGACAGCAAUAUUACGCUGC", "Assigned category": "lower segment"}
{"Entry sequence": "CGAAAGCAAUAUUACGUCCU", "Assigned category": "upper segment"}
{"Entry sequence": "CUUGAGCAAUAUUACGAAUU", "Assigned category": "lower segment"}
{"Entry sequence": "CGUUAGCAAUAUUACGCAAC", "Assigned category": "middle segment"}
{"Entry sequence": "UCACAGCAAUAUUACGUAAA", "Assigned category": "middle segment"}
{"Entry sequence": "CUCCAGCAAUAUUACGGGUC", "Assigned category": "lower segment"}
{"Entry sequence": "UCGCAGCAAUAUUACGAAGC", "Assigned category": "lower segment"}
{"Entry sequence": "UUUGAGCAAUAUUACGUAAG", "Assigned category": "upper segment"}
{"Entry sequence": "CCAAAGCAAUAUUACGUCAU", "Assigned category": "lower segment"}
